- TESTED SYSTEM: T1, PSMA Fab (006 PSMA Fab) (biotinylated (site not stated))
- T1 construct: also called Anti-PSMA Fab
- TEST PROTOCOL: clonal phage ELISA on biotinylated PSMA Fab captured on neutravidin plates, anti-M13 HRP detection;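 note: crude clonal phage supernatants tested, before phage were added, wells were pretreated with PSMA antigen in blocking buffer or with blocking buffer only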
MEASURED PARAMETER: Phage binding ELISA signal, Anti-PSMA Fab
Lab note: record just the number, no unit beside it.

- BINDER: "YIQACKPRWMCNGF [Phage-3667 (peptide-180 library clone)]"
  NUMERIC VALUE: 1.49
- BINDER: "EVRRCEPSWMCSVV [Phage-3666 (peptide-180 library clone)]"
  NUMERIC VALUE: 1.49
- BINDER: "DHKLCKPEWMCAGL [Phage-3659 (peptide-180 library clone)]"
  NUMERIC VALUE: 1.5
- BINDER: "MVSHCVPLWMCAGF [Phage-3660 (peptide-180 library clone)]"
  NUMERIC VALUE: 1.49
- BINDER: "HVAACVPSWMCTGF [Phage-3662 (peptide-180 library clone)]"
  NUMERIC VALUE: 1.49

Query :: Fill blank: measured Phage binding ELISA signal, Anti-PSMA Fab of the binder EGPLCKPAWMCRGF [Phage-3663 (peptide-180 library clone)] is ____.
Result :: 1.49

Query :: What value of Phage binding ELISA signal, Anti-PSMA Fab has been reported for the following binder? GHVYCEPQWMCYGF [Phage-3669 (peptide-180 library clone)]
Result :: 1.49

Query :: Phage binding ELISA signal, Anti-PSMA Fab lookup needed for PVPYCRPIWMCQGL [Phage-3664 (peptide-180 library clone)] , thanks.
Result :: 1.49
